- methodSummary: Drug uptake in C57BL/6 mouse plasma at 3 mg/kg, sc measured after 60 mins
- Assay type: ADME, organism-based

smilesCode | concentration at 1 h (nM)
O=C1N[C@H](c2cncc(C#Cc3ncccc3F)c2)[C@@H](c2ccc(F)cc2)O1 | 1430

---

- targetDesc: Metabotropic glutamate receptor 5 (Homo sapiens, UniProt P41594)
- Sequence (P41594 whole entry): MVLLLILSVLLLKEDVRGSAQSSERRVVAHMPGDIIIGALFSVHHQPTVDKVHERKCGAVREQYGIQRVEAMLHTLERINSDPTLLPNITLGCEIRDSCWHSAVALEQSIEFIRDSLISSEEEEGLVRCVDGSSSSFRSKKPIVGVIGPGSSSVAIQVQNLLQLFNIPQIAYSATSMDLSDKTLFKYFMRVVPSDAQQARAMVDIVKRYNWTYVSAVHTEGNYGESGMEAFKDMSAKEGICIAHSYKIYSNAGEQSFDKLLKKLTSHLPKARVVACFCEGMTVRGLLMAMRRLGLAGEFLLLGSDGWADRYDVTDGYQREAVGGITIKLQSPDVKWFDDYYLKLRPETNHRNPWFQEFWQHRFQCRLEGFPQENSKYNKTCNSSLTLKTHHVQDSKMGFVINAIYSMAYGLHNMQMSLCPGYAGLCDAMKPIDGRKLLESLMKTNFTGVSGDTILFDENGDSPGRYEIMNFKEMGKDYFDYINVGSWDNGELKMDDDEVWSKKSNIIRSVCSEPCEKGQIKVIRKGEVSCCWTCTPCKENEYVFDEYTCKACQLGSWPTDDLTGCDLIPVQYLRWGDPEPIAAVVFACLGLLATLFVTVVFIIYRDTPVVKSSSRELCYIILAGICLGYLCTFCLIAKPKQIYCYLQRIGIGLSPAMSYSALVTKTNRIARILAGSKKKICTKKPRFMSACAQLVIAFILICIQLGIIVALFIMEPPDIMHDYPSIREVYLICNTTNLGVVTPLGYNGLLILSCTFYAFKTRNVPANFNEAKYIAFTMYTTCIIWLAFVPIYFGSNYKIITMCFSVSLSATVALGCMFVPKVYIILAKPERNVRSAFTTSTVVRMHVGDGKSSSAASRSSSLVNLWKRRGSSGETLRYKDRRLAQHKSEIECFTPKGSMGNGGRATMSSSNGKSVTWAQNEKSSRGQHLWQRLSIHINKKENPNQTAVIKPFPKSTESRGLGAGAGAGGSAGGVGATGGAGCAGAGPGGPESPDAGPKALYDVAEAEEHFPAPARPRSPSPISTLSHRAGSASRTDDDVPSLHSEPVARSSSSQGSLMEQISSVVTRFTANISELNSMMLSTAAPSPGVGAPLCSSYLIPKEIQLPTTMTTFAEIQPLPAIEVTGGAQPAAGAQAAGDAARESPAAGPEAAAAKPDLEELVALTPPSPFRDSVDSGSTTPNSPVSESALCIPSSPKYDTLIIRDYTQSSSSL
- methodSummary: Displacement of [3H]-MPEPy from human mGluR5A transfected in HEK293 cell membranes after 60 mins by microbeta liquid scintillation counting analysis
pKi: −log10 of the molar value.
# reported pKi; entries follow
recordedMetric: pKi

smilesCode | recordedMetric | reportedMeasurement
O=C1N[C@H](c2cncc(C#Cc3ncccc3F)c2)[C@@H](c2ccc(F)cc2)O1 | pKi | 7.85
O=C1N[C@H](c2cncc(C#Cc3ccnc(F)c3)c2)[C@@H](c2ccc(F)cc2)O1 | pKi | 7.82
O=C1N[C@H](c2cncc(C#Cc3ccccc3)c2)[C@@H](c2cc(F)cc(F)c2)O1 | pKi | 8.85
O=C1N[C@H](c2cncc(C#Cc3ccccc3)c2)[C@@H](c2ccc(Cl)cc2)O1 | pKi | 8.66
O=C1N[C@H](c2cncc(C#Cc3ccccc3)c2)[C@@H](c2cccc(F)c2F)O1 | pKi | 8.74
